Test system: Staphylococcus aureus strain ATCC 29213 (wild type)
assayText: MIC of the compounds used alone, microdilution in a liquid medium (CLSI)
Format: cell-based
cond: Staphylococcus aureus, ATCC29213; antibiotic alone (second value of cell); S. aureus ATCC 29213; read-out: Initial MICs
MIC vs 2 µg/mL: less than gives class 1; not less than gives class 0.

In: In plain terms, does C[C@@H]1O[C@@H]1P(=O)(O)O come in under 2 µg/mL for MIC?
Out: class 0

In: For C[C@@H](O)[C@H]1C(=O)N2C(C(=O)O)=C(SCCN=CN)C[C@H]12 , is the recorded MIC below the cut-off of 2 µg/mL?
Out: class 1

In: Problem: For the compound C[C@H]1COc2c(N3CCN(C)CC3)c(F)cc3c(=O)c(C(=O)O)cn1c23 , is MIC under 2 µg/mL?
Out: class 1

In: Is it true that MIC reported for CC[C@H]1OC(=O)[C@H](C)[C@@H](O[C@H]2C[C@@](C)(OC)[C@@H](O)[C@H](C)O2)[C@H](C)[C@@H](O[C@@H]2O[C@H](C)C[C@H](N(C)C)[C@H]2O)[C@](C)(O)C[C@@H](C)C(=O)[C@H](C)[C@@H](O)[C@]1(C)O is less than 2 µg/mL?
Out: class 1
